- Tested on: velvetleaf
- assayInfo: Test B pre-/postemergence herbicide test
- Format: in vivo, Abutilon theophrasti
- condition: postemergence, 500 g ai/ha; visual rating, scale 0 (no effect) to 100 (complete control)
# Lookup of reported Velvetleaf plant response rating keyed by entry
Form: value (number only, do not type unit).

Check out these entries, answers already filled in.
INSERT INTO assay_data (compound, testresult) VALUES
  ('CCn1nc(C(C)(C)C)cc1C(=O)Nc1cccc(C(=O)NC2CC2)n1 [Compound 146]', 60),
  ('C#CCNC(=O)c1cccc(NC(=O)c2sc(C(C)(C)C)nc2CC)n1 [Compound 217]', 10),
  ('CCN(CC)C(=O)c1cccc(NC(=O)c2cn(C(C)(C)C)nc2C)c1 [Compound 184]', 60),
  ('C#CCNC(=O)c1cccc(NC(=O)c2sc(C(C)(C)C)nc2C)c1 [Compound 203]', 10);

Consider now this further compound.
# input What value of Velvetleaf plant response rating has been reported for the following compound? CCNC(=O)c1cc(C)cc(NC(=O)c2cc(C(C)(C)C)nn2CC)n1 [Compound 150]
# output 60

---

- Tested on: ducksalad
- assayInfo: Test B flooded paddy test
- Format: in vivo, Heteranthera limosa
- condition: 1000 g ai/ha, visual rating, scale 0 to 100 (0 no effect, 100 complete control), 13 to 15 days
- Method: At the same time, plants selected from these crop and weed species and also blackgrass (Alopecurus myosuroides Huds.), wheat (Triticum aestivum L.) and wild oat (Avena fatua L.) were treated with postemergence applications of test chemicals formulated in the same manner. […] Treated plants and controls were maintained in a greenhouse for 13 to 15 days, after which time all species were compared to controls and visually evaluated. […]
Assign 1 whenever Ducksalad plant response rating does not fall below 80; assign 0 whenever it does.

INSERT INTO measurements (smi, assignedclass) VALUES
  ('CCn1nc(C(C)(C)C)cc1C(=O)Nc1nc(OC)cc(SCF)n1', 0),
  ('CCCCn1nc(C(C)(C)C)cc1C(=O)Nc1cccc(C(=O)NCC)c1', 0),
  ('CCn1nc(C(C)(C)C)cc1C(=O)Nc1cc(C(=O)OC)c(OC)cc1F', 1),
  ('C#CCOC(=O)c1cccc(NC(=O)c2cc(C(C)(C)C)nn2CC)c1', 0),
  ('C=CCn1nc(C(C)(C)C)cc1C(=O)Nc1cccc(C(C)=O)c1', 0);

# input Is Ducksalad plant response rating at least 80? Consider CCn1nc(C(C)(C)C)cc1C(=O)Nc1cccc(C(=O)OC(C)C)c1C
# output 0

# input Is Ducksalad plant response rating at least 80? Consider CC(=NO)c1cccc(NC(=O)c2cc(C(C)(C)C)nn2C)c1
# output 1

# input Is Ducksalad plant response rating at least 80? Consider CCn1nc(C(C)(C)C)cc1C(=O)Nc1ccc(F)c(C(=O)NCCF)c1
# output 0

# input Is Ducksalad plant response rating at least 80? Consider CC(=O)c1cccc(NC(=O)c2cn(C(C)C)nc2C)c1
# output 0

---

- Test system: rice
- assayInfo: Test C flooded paddy test
- Format: in vivo, Oryza sativa
- condition: 500 g ai/ha, visual rating after 12 to 14 days, scale 0 to 100 (0 no effect, 100 complete control)
assayMetric: Plant response rating, Rice
Form: value (number only, do not type unit).

Check out these entries, answers already filled in.
INSERT INTO results (compound, assaymetric, testresult) VALUES
  ('CCn1nc(C(C)(C)C)cc1C(=O)Nc1cccc(OC(C)C)c1 [Compound 273]', 'Plant response rating, Rice', 60),
  ('CCn1nc(C(C)(C)C)cc1C(=O)Nc1cccc(C(=O)NC2CC2)n1 [Compound 146]', 'Plant response rating, Rice', 20),
  ('CCn1nc(C(C)(C)C)cc1C(=O)Nc1cccc(S(=O)(=O)C(F)(F)F)c1 [Compound 134]', 'Plant response rating, Rice', 60),
  ('CCn1nc(C(C)(C)C)cc1C(=O)Nc1cc(C(=O)N2CCOCC2)ccc1F [Compound 243]', 'Plant response rating, Rice', 90),
  ('CCn1nc(C(C)(C)C)cc1C(=O)Nc1cccc(OC(F)(F)F)c1 [Compound 272]', 'Plant response rating, Rice', 20);

# input What value of Plant response rating, Rice has been reported for the following compound? CCN1N=C(C(C)(C)C)CC1C(=O)Nc1cc(C(=O)N2CCCC2)ccc1F (racemic) [Compound 309]
# output 75

# input What value of Plant response rating, Rice has been reported for the following compound? CCn1nc(C(C)(C)C)cc1C(=O)Nc1cccc(C(=O)N2CC=CC2)c1 [Compound 286]
# output 75

# input What value of Plant response rating, Rice has been reported for the following compound? CCc1cn(C(C)(C)C)nc1C(=O)Nc1cc(C(=O)N(C)C)ccn1 [Compound 232]
# output 60

# input What value of Plant response rating, Rice has been reported for the following compound? C=CCn1nc(C(C)(C)C)cc1C(=O)Nc1cccc(C(C)=NO)c1 [Compound 117]
# output 65

# input What value of Plant response rating, Rice has been reported for the following compound? CCOC(=O)c1cccc(NC(=O)c2cc(C(C)(C)C)nn2CCF)c1 [Compound 79]
# output 30

# input What value of Plant response rating, Rice has been reported for the following compound? CCn1nc(C(C)(C)C)cc1C(=O)Nc1cc(C(=O)N2CCCC2)ccc1F [Compound 242]
# output 90

# input What value of Plant response rating, Rice has been reported for the following compound? CCC1=NN(C(C)(C)C)CC1C(=O)Nc1cc(C(=O)N2CCCC2)ccc1F (racemic) [Compound 341]
# output 70

# input What value of Plant response rating, Rice has been reported for the following compound? CCNC(=O)c1cccc(NC(=O)c2nn(C(C)(C)CC)nc2CC)c1 [Compound 376]
# output 80

# input What value of Plant response rating, Rice has been reported for the following compound? CCn1nc(C(C)(C)C)cc1C(=O)Nc1cccc(OC(F)(F)C(F)F)c1 [Compound 333]
# output 20

# input What value of Plant response rating, Rice has been reported for the following compound? CCc1nn(C(C)(C)C)cc1C(=O)Nc1cc(C(=O)NC)ccc1F [Compound 194]
# output 45

Cited source for all entries: patent US20060069132A1
